system: VDR homodimer (NR concentration 270 nM); experiment: PBM binding z-score (relative to random genomic background probes); higher = stronger binding; sequences stand for … in GC…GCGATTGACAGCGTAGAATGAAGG
Criterion: PBM binding z-score meeting or surpassing 0.7. Met: condition met. Not met: condition not met.

seqtext=ATTACAGGGTCATCGTAGGCCAGAGTACGCACAG grouplabel="condition met"
seqtext=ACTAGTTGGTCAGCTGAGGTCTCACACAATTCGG grouplabel="condition not met"
seqtext=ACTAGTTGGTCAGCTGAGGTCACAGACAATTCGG grouplabel="condition met"
seqtext=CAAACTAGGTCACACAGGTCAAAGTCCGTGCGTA grouplabel="condition met"
seqtext=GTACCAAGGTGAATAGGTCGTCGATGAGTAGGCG grouplabel="condition not met"
seqtext=CAAACTAGGTCAAGGTCAATGTCGGTTTGTGCCA grouplabel="condition met"
seqtext=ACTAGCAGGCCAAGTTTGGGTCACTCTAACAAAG grouplabel="condition not met"
seqtext=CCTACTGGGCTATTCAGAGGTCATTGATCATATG grouplabel="condition met"
seqtext=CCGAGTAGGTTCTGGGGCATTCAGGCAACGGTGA grouplabel="condition not met"
seqtext=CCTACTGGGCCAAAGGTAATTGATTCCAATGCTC grouplabel="condition not met"
seqtext=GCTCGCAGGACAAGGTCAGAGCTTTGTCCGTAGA grouplabel="condition not met"
seqtext=TCCGCTAGGTCAGTTGGTCAGCTAACGAGCTGCC grouplabel="condition not met"
seqtext=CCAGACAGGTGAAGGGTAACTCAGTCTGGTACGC grouplabel="condition not met"
seqtext=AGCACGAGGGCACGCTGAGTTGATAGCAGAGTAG grouplabel="condition met"
seqtext=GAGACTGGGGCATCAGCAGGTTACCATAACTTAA grouplabel="condition not met"
seqtext=CCTAGCAGGCCTGGGTCACTCAAGCATTTCGCTT grouplabel="condition not met"
seqtext=ACTCGGAGGACAAAAGTCAGAGCTACGCCAGTGA grouplabel="condition not met"
seqtext=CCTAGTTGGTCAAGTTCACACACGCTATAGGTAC grouplabel="condition met"
seqtext=CCTACTGGGCCAAGGGCATTGATCAGTCAAAGCA grouplabel="condition not met"
seqtext=CCGGACAGGTGAAAGGTAACTCAGTCTGGTACGC grouplabel="condition not met"
seqtext=GCGACTGGGGCATCCGCAGGTTACCATAACTTAA grouplabel="condition not met"
seqtext=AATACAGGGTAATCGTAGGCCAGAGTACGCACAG grouplabel="condition not met"
seqtext=TCTAGCAGGCCAGACGGTCACTCAAGAGGTACGG grouplabel="condition not met"
seqtext=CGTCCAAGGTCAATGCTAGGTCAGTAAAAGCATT grouplabel="condition met"
seqtext=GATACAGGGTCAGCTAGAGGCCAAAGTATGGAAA grouplabel="condition met"

----------
test system: RARg:RXRa (NR concentration 270 nM, RXRa partner concentration 90 nM); assay: PBM binding z-score (relative to random genomic background probes); higher = stronger binding; sequences stand for … in GC…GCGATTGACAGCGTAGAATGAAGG
Overview of recorded PBM binding z-score for various sequences
measurementType: PBM binding z-score

seqtext=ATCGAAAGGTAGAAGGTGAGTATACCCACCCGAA testedtarget="RARg:RXRa (NR concentration 270 nM, RXRa partner concentration 90 nM)" measurementtype="PBM binding z-score" experimentalresult=0.633
seqtext=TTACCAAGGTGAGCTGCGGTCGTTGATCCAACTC testedtarget="RARg:RXRa (NR concentration 270 nM, RXRa partner concentration 90 nM)" measurementtype="PBM binding z-score" experimentalresult=0.0521
seqtext=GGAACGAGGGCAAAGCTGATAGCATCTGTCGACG testedtarget="RARg:RXRa (NR concentration 270 nM, RXRa partner concentration 90 nM)" measurementtype="PBM binding z-score" experimentalresult=1.03
seqtext=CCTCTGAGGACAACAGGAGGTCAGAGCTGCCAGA testedtarget="RARg:RXRa (NR concentration 270 nM, RXRa partner concentration 90 nM)" measurementtype="PBM binding z-score" experimentalresult=3.66
seqtext=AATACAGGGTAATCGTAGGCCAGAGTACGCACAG testedtarget="RARg:RXRa (NR concentration 270 nM, RXRa partner concentration 90 nM)" measurementtype="PBM binding z-score" experimentalresult=0.923
seqtext=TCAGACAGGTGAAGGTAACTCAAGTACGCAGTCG testedtarget="RARg:RXRa (NR concentration 270 nM, RXRa partner concentration 90 nM)" measurementtype="PBM binding z-score" experimentalresult=0.573
seqtext=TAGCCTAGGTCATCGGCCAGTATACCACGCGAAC testedtarget="RARg:RXRa (NR concentration 270 nM, RXRa partner concentration 90 nM)" measurementtype="PBM binding z-score" experimentalresult=4.27
seqtext=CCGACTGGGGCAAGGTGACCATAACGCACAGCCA testedtarget="RARg:RXRa (NR concentration 270 nM, RXRa partner concentration 90 nM)" measurementtype="PBM binding z-score" experimentalresult=0.469
seqtext=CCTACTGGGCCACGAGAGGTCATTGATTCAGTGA testedtarget="RARg:RXRa (NR concentration 270 nM, RXRa partner concentration 90 nM)" measurementtype="PBM binding z-score" experimentalresult=3.95
seqtext=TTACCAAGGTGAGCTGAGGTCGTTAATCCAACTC testedtarget="RARg:RXRa (NR concentration 270 nM, RXRa partner concentration 90 nM)" measurementtype="PBM binding z-score" experimentalresult=0.963
seqtext=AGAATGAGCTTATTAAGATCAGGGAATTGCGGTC testedtarget="RARg:RXRa (NR concentration 270 nM, RXRa partner concentration 90 nM)" measurementtype="PBM binding z-score" experimentalresult=-0.341
seqtext=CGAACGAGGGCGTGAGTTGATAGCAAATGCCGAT testedtarget="RARg:RXRa (NR concentration 270 nM, RXRa partner concentration 90 nM)" measurementtype="PBM binding z-score" experimentalresult=0.0501
seqtext=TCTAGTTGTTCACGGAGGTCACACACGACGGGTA testedtarget="RARg:RXRa (NR concentration 270 nM, RXRa partner concentration 90 nM)" measurementtype="PBM binding z-score" experimentalresult=3.97
seqtext=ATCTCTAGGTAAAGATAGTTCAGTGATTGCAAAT testedtarget="RARg:RXRa (NR concentration 270 nM, RXRa partner concentration 90 nM)" measurementtype="PBM binding z-score" experimentalresult=0.619
seqtext=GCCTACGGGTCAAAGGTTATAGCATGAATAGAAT testedtarget="RARg:RXRa (NR concentration 270 nM, RXRa partner concentration 90 nM)" measurementtype="PBM binding z-score" experimentalresult=6.82
seqtext=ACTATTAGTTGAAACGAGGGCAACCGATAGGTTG testedtarget="RARg:RXRa (NR concentration 270 nM, RXRa partner concentration 90 nM)" measurementtype="PBM binding z-score" experimentalresult=1.01
seqtext=ATCTCTAGGTAACAAGTTCAGTGACAGAGAGGAC testedtarget="RARg:RXRa (NR concentration 270 nM, RXRa partner concentration 90 nM)" measurementtype="PBM binding z-score" experimentalresult=1.58
seqtext=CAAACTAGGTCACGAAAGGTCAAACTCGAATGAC testedtarget="RARg:RXRa (NR concentration 270 nM, RXRa partner concentration 90 nM)" measurementtype="PBM binding z-score" experimentalresult=8.21
seqtext=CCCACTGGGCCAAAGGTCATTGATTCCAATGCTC testedtarget="RARg:RXRa (NR concentration 270 nM, RXRa partner concentration 90 nM)" measurementtype="PBM binding z-score" experimentalresult=5.82
seqtext=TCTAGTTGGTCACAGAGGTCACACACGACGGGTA testedtarget="RARg:RXRa (NR concentration 270 nM, RXRa partner concentration 90 nM)" measurementtype="PBM binding z-score" experimentalresult=5.8
seqtext=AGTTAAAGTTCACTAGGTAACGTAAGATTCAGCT testedtarget="RARg:RXRa (NR concentration 270 nM, RXRa partner concentration 90 nM)" measurementtype="PBM binding z-score" experimentalresult=4.38
seqtext=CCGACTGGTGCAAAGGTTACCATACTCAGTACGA testedtarget="RARg:RXRa (NR concentration 270 nM, RXRa partner concentration 90 nM)" measurementtype="PBM binding z-score" experimentalresult=2.07
seqtext=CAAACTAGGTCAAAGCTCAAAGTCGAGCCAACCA testedtarget="RARg:RXRa (NR concentration 270 nM, RXRa partner concentration 90 nM)" measurementtype="PBM binding z-score" experimentalresult=4.14
seqtext=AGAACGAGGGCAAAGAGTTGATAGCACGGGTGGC testedtarget="RARg:RXRa (NR concentration 270 nM, RXRa partner concentration 90 nM)" measurementtype="PBM binding z-score" experimentalresult=1.3
seqtext=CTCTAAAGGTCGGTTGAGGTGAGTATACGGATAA testedtarget="RARg:RXRa (NR concentration 270 nM, RXRa partner concentration 90 nM)" measurementtype="PBM binding z-score" experimentalresult=3.06
seqtext=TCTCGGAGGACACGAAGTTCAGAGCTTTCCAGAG testedtarget="RARg:RXRa (NR concentration 270 nM, RXRa partner concentration 90 nM)" measurementtype="PBM binding z-score" experimentalresult=1.17
seqtext=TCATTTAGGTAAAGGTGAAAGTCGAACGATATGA testedtarget="RARg:RXRa (NR concentration 270 nM, RXRa partner concentration 90 nM)" measurementtype="PBM binding z-score" experimentalresult=1.74
seqtext=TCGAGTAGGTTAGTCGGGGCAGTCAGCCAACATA testedtarget="RARg:RXRa (NR concentration 270 nM, RXRa partner concentration 90 nM)" measurementtype="PBM binding z-score" experimentalresult=-0.199
seqtext=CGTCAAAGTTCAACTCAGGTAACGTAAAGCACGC testedtarget="RARg:RXRa (NR concentration 270 nM, RXRa partner concentration 90 nM)" measurementtype="PBM binding z-score" experimentalresult=5.85
seqtext=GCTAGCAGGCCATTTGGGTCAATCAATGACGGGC testedtarget="RARg:RXRa (NR concentration 270 nM, RXRa partner concentration 90 nM)" measurementtype="PBM binding z-score" experimentalresult=0.878
seqtext=GCACGGAGGACAAGGTCAGAGCTTTGTCCGTAGA testedtarget="RARg:RXRa (NR concentration 270 nM, RXRa partner concentration 90 nM)" measurementtype="PBM binding z-score" experimentalresult=3.17
seqtext=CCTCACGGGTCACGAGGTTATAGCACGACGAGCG testedtarget="RARg:RXRa (NR concentration 270 nM, RXRa partner concentration 90 nM)" measurementtype="PBM binding z-score" experimentalresult=5.79
seqtext=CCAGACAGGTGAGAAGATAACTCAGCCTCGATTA testedtarget="RARg:RXRa (NR concentration 270 nM, RXRa partner concentration 90 nM)" measurementtype="PBM binding z-score" experimentalresult=0.21
seqtext=CCTGCTAGGTCAATGGGCAGCTAAAGCAGCTCGC testedtarget="RARg:RXRa (NR concentration 270 nM, RXRa partner concentration 90 nM)" measurementtype="PBM binding z-score" experimentalresult=3.12
seqtext=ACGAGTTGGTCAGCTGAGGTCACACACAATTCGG testedtarget="RARg:RXRa (NR concentration 270 nM, RXRa partner concentration 90 nM)" measurementtype="PBM binding z-score" experimentalresult=4.17
seqtext=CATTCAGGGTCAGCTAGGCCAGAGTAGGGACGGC testedtarget="RARg:RXRa (NR concentration 270 nM, RXRa partner concentration 90 nM)" measurementtype="PBM binding z-score" experimentalresult=4.64
seqtext=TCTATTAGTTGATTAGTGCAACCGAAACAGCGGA testedtarget="RARg:RXRa (NR concentration 270 nM, RXRa partner concentration 90 nM)" measurementtype="PBM binding z-score" experimentalresult=0.467
seqtext=CGTCCAAGGTCAGAGAGGTCAGTGGATGCCGAGT testedtarget="RARg:RXRa (NR concentration 270 nM, RXRa partner concentration 90 nM)" measurementtype="PBM binding z-score" experimentalresult=6.26
seqtext=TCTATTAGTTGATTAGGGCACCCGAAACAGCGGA testedtarget="RARg:RXRa (NR concentration 270 nM, RXRa partner concentration 90 nM)" measurementtype="PBM binding z-score" experimentalresult=0.623
seqtext=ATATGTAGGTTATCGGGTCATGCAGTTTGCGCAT testedtarget="RARg:RXRa (NR concentration 270 nM, RXRa partner concentration 90 nM)" measurementtype="PBM binding z-score" experimentalresult=3.43
seqtext=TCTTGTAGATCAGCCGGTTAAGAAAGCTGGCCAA testedtarget="RARg:RXRa (NR concentration 270 nM, RXRa partner concentration 90 nM)" measurementtype="PBM binding z-score" experimentalresult=-0.542
seqtext=ACTAGTTGGTCAGCGGAGGTCACACACAATTCGG testedtarget="RARg:RXRa (NR concentration 270 nM, RXRa partner concentration 90 nM)" measurementtype="PBM binding z-score" experimentalresult=3.96
seqtext=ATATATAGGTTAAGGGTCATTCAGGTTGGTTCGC testedtarget="RARg:RXRa (NR concentration 270 nM, RXRa partner concentration 90 nM)" measurementtype="PBM binding z-score" experimentalresult=4.98
seqtext=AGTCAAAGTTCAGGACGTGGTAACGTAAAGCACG testedtarget="RARg:RXRa (NR concentration 270 nM, RXRa partner concentration 90 nM)" measurementtype="PBM binding z-score" experimentalresult=4.04
seqtext=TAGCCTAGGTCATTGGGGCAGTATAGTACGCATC testedtarget="RARg:RXRa (NR concentration 270 nM, RXRa partner concentration 90 nM)" measurementtype="PBM binding z-score" experimentalresult=3.93
seqtext=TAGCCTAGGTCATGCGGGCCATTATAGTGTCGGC testedtarget="RARg:RXRa (NR concentration 270 nM, RXRa partner concentration 90 nM)" measurementtype="PBM binding z-score" experimentalresult=4.02
seqtext=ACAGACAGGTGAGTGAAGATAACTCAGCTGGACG testedtarget="RARg:RXRa (NR concentration 270 nM, RXRa partner concentration 90 nM)" measurementtype="PBM binding z-score" experimentalresult=0.185
seqtext=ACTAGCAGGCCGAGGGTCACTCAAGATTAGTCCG testedtarget="RARg:RXRa (NR concentration 270 nM, RXRa partner concentration 90 nM)" measurementtype="PBM binding z-score" experimentalresult=2.41
seqtext=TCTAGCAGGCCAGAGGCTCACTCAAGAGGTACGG testedtarget="RARg:RXRa (NR concentration 270 nM, RXRa partner concentration 90 nM)" measurementtype="PBM binding z-score" experimentalresult=-0.48
seqtext=GCTGCTAGGTCAAATGATGGTCAGCTAAAGCTCG testedtarget="RARg:RXRa (NR concentration 270 nM, RXRa partner concentration 90 nM)" measurementtype="PBM binding z-score" experimentalresult=5.08
seqtext=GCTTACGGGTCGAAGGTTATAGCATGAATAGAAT testedtarget="RARg:RXRa (NR concentration 270 nM, RXRa partner concentration 90 nM)" measurementtype="PBM binding z-score" experimentalresult=2.31
